This collection of values is drawn from PubChem BioAssay AID686978.

Assay: qHTS for Inhibitors of human tyrosyl-DNA phosphodiesterase 1 (TDP1): qHTS in cells in absence of CPT; note: nearly all actives have a fitted effect of over 55% in size; note: potency is the fitted concentration of half-maximal effect
Details: DT40 Tdp1-/- hTDP1 cells, no CPT, ATP luminescence, 48 h
In all, about 420,000 compounds went through this assay and about 64,000 (15%) were called active. Roughly 27% stayed inconclusive and do not appear here. The list is a sample of the results.
readoutLabel: Potency

Known Potency results, listed for orientation:
>  <compound>
c1ccc2nc(C3=NCCN3)cnc2c1

>  <Potency>
inactive

$$$$
>  <compound>
Cc1ccc(NC(=O)C2CC(c3ccc(F)cc3)=NO2)cc1 (stereo unspecified)

>  <Potency>
inactive

$$$$
>  <compound>
Cc1cccc(NC(=O)CCN2CC(C)CC(C)C2)c1 (stereo unspecified)

>  <Potency>
inactive

$$$$
>  <compound>
Cc1cn(C)c(CC(=O)NCc2ccccc2)c1C(=O)O

>  <Potency>
inactive

$$$$
>  <compound>
Cc1ccc(CNC(=O)C2CC(=O)N(C3CCCCCCC3)C2)cc1 (stereo unspecified)

>  <Potency>
inactive

$$$$

Exam item: Provide only the value of recorded Potency for `CCOc1ccc(Oc2nc(C)cc(OC)n2)nn1`
Marked response: inactive

Exam item: Provide only the value of recorded Potency for `O=CN1CCN(C(=O)c2ccc(Br)o2)CC1`
Marked response: inactive

Exam item: Provide only the value of recorded Potency for CC1CCCN(C(=O)CN2C(=O)c3ccccc3S2(=O)=O)C1 (stereo unspecified)
Marked response: inactive

Exam item: Provide only the value of recorded Potency for COC(=O)c1cccc(Cn2nnc3sc4c(c3c2=O)CCC(C(C)(C)C)C4)c1 (stereo unspecified)
Marked response: 18.4 µM (active)

Exam item: Provide only the value of recorded Potency for `COc1ccc(-c2sc3ccc(OC)cc3c2C#Cc2ccccn2)cc1`
Marked response: 18.4 µM (active)

Exam item: Provide only the value of recorded Potency for `COc1ccc(N(Cc2ccccc2)S(=O)(=O)c2cccc(C(=O)O)c2)cc1`
Marked response: inactive

Exam item: Provide only the value of recorded Potency for COc1ccc(OC)c(C(c2nnnn2C(C)(C)C)N2CCc3ccccc3C2)c1 (stereo unspecified)
Marked response: 13 µM (active)

Exam item: Provide only the value of recorded Potency for `Cc1nnc(C(=O)NC(C)(C)c2nc(C(=O)NCc3ccc(F)cc3)c(O)c(=O)n2C)o1`
Marked response: inactive

Exam item: Provide only the value of recorded Potency for `O=C(c1ccc2c(c1)N(Cc1ccccc1)C(=O)c1ccccc1S2(=O)=O)N1CCC(Cc2ccccc2)CC1`
Marked response: 5.8 µM (active)

Exam item: Provide only the value of recorded Potency for `Cc1c(C(=O)NCc2ccccc2Br)oc2ccc3c(c12)C(=O)CC(C)(C)O3`
Marked response: 16.4 µM (active)

Exam item: Provide only the value of recorded Potency for `CCSc1nnc(NC(=O)Cc2ccccc2OC)s1`
Marked response: inactive

Exam item: Provide only the value of recorded Potency for COc1ccc(C2=NOC(C(=O)NCc3ccco3)C2)cc1OC (stereo unspecified)
Marked response: 2.59 µM (active)

Exam item: Provide only the value of recorded Potency for `COc1ccc2sc(-c3ccc(N(C)C)cc3)c(C#CCO)c2c1`
Marked response: 18.4 µM (active)

Exam item: Provide only the value of recorded Potency for COCCn1nnnc1C(c1cc2ccc(OC)cc2[nH]c1=O)N1CCc2ccccc2C1 (stereo unspecified)
Marked response: inactive

* * *

Test: qHTS for Inhibitors of human tyrosyl-DNA phosphodiesterase 1 (TDP1): qHTS in cells in absence of CPT; note: nearly all actives have a fitted effect of over 55% in size
Details: DT40 Tdp1-/- hTDP1 cells, no CPT, ATP luminescence, 48 h
About 64,000 (15%) of roughly 420,000 compounds were called active. About 27% were inconclusive and are not listed. The call rests on the fitted dose curve; in most records, active means well fitted inhibition curve with a large enough effect; inconclusive means small, poorly fitted or top-dose-only effect; inactive means flat fitted curve, though single readings scatter. A selection follows.
Please state which outcome applies, choosing from label 1 (active), label 0 (inactive)

Exam item: // param item: `O=c1[nH]c(CCl)nc2cc(-c3ccc(Cl)cc3)sc12` ; yields the recorded call
Marked response: label 1

Exam item: // param item: C[C@H](NC(=O)C1CC(=O)N(c2ccc3c(c2)OCCO3)C1)C(=O)N1CCC(C(=O)O)CC1 (stereo partly drawn) ; yields the recorded call
Marked response: label 0

Exam item: // param item: CC(OC(=O)CNC(=O)c1cccc(F)c1)C(=O)NC1CCCCC1C (stereo not drawn) ; yields the recorded call
Marked response: label 0

Exam item: // param item: CCC1(C(=O)c2ccccc2)C(c2cccc([N+](=O)[O-])c2)C1(C(=O)OC)C(=O)OC (stereo not drawn) ; yields the recorded call
Marked response: label 1

Exam item: // param item: `O=C(/C=C/c1c(F)cccc1Cl)Nc1nn[nH]n1` ; yields the recorded call
Marked response: label 0

Exam item: // param item: `Cc1cccc(N2CCN(C(=O)c3ccc4c(c3)CCN4S(=O)(=O)c3ccccc3)CC2)c1C` ; yields the recorded call
Marked response: label 1

Exam item: // param item: `Cc1oc(C)c(C(=O)NCCCC(=O)O)c1C(=O)NCCCC(=O)O` ; yields the recorded call
Marked response: label 0

Exam item: // param item: `O=C(NOCc1ccccc1)c1cccc([N+](=O)[O-])c1` ; yields the recorded call
Marked response: label 0

Exam item: // param item: `CCOc1ccc(Cn2nnc(C(=O)Nc3ccc(OC)cc3OC)c2N)cc1` ; yields the recorded call
Marked response: label 0

Exam item: // param item: `O=C(Nn1c(-c2ccc(Cl)cc2)nc2ccccc2c1=O)c1cccnc1Cl` ; yields the recorded call
Marked response: label 0

Exam item: // param item: CCS(=O)(=O)N1Cc2ccccc2CC1C(=O)Nc1ccc(OC)cc1OC (stereo not drawn) ; yields the recorded call
Marked response: label 0

Exam item: // param item: `O=c1[nH]c(CN2CCOCC2)nc2cc(Cl)ccc12` ; yields the recorded call
Marked response: label 0

Exam item: // param item: `Cc1ccc(C(=O)NNC(=O)c2ccc3c(c2)OCCO3)cc1` ; yields the recorded call
Marked response: label 0

Exam item: // param item: `NC(=O)Cc1nc2scc(-c3ccc(Cl)cc3)c2c(=O)[nH]1` ; yields the recorded call
Marked response: label 0

Exam item: // param item: `Oc1ccccc1CN1CCN(C(c2ccccc2)c2ccccc2)CC1` ; yields the recorded call
Marked response: label 1

Exam item: // param item: CC1CCC2(CC1)NC(=O)N(CC(=O)c1cccn1C)C2=O (stereo not drawn) ; yields the recorded call
Marked response: label 0

Exam item: // param item: `CC(C)Cc1nnc(NC(=O)CCc2ccccc2)s1` ; yields the recorded call
Marked response: label 0

Exam item: // param item: `O=C(Nc1ccccc1Cl)c1ccccc1S(=O)(=O)c1ccccc1[N+](=O)[O-]` ; yields the recorded call
Marked response: label 0

Exam item: // param item: CC1COc2ccccc2N1C(=O)c1cccnc1Cl (stereo not drawn) ; yields the recorded call
Marked response: label 0

Exam item: // param item: `CC1(C)CC(=O)C=C(c2ccccc2CO)C1=O` ; yields the recorded call
Marked response: label 0

Exam item: // param item: `COc1ccccc1NC(=O)COC(=O)c1ccccc1SCC(=O)N1CCCC1` ; yields the recorded call
Marked response: label 0

Exam item: // param item: `CC(=O)NC(=O)c1ccccc1O` ; yields the recorded call
Marked response: label 0

Exam item: // param item: `O=C(c1c(F)cccc1F)N1CCN(c2ncc(Br)cn2)CC1` ; yields the recorded call
Marked response: label 0

Exam item: // param item: CC1CCCCC1NC(=O)c1cn(C)c2ccc(S(=O)(=O)N3CCOCC3)cc2c1=O (stereo not drawn) ; yields the recorded call
Marked response: label 0

Exam item: // param item: `O=C(NNC(=O)c1cc(S(=O)(=O)N2CCCCC2)ccc1Cl)c1ccccc1O` ; yields the recorded call
Marked response: label 1

Exam item: // param item: `COc1ccc(NC(=O)c2sc3nc(C)nc(N4CCN(c5ccccn5)CC4)c3c2C)c(OC)c1` ; yields the recorded call
Marked response: label 1

Exam item: // param item: `O=C(Nc1ccc(N2CCOCC2)nc1)c1c(F)cccc1F` ; yields the recorded call
Marked response: label 0

Exam item: // param item: `Cc1cc(NC(=O)Cn2nc(C(F)(F)F)c3c2CCCC3)no1` ; yields the recorded call
Marked response: label 0

Exam item: // param item: `Cc1nc(N2CCN(c3ccccn3)CC2)c2c(C)c(C(=O)Nc3ccc(F)cc3)sc2n1` ; yields the recorded call
Marked response: label 1

Exam item: // param item: `Cc1ccc(NC(=O)CNCc2ccccn2)cc1S(=O)(=O)N(C)C` ; yields the recorded call
Marked response: label 0

Exam item: // param item: `Cc1cccc(N2CCN(C(=O)c3ccc(Nc4nc5ccccc5n5nnnc45)cc3)CC2)c1C` ; yields the recorded call
Marked response: label 0

Exam item: // param item: `CNC(=O)/C(C#N)=C/c1c(F)cccc1Cl` ; yields the recorded call
Marked response: label 1

Exam item: // param item: `CN1/C(=C\C(=O)c2cccnc2Cl)C(C)(C)c2ccccc21` ; yields the recorded call
Marked response: label 1

Exam item: // param item: CCOC(=O)C1CCCN(C(=O)c2sc3nc(C)nc(N4CCOCC4)c3c2C)C1 (stereo not drawn) ; yields the recorded call
Marked response: label 0

Exam item: // param item: `O=C(CO/N=C/c1ccccc1O)NNC(=O)c1ccccc1Cl` ; yields the recorded call
Marked response: label 1

Exam item: // param item: CCC(C)[C@@H](C(=O)N1CCNCC1)n1cc(CCCCN)nn1 (stereo partly drawn) ; yields the recorded call
Marked response: label 0

Exam item: // param item: `NS(=O)(=O)c1cc(C(=O)OCC(=O)NNC(=O)c2ccccc2)ccc1Cl` ; yields the recorded call
Marked response: label 0

Exam item: // param item: COc1ccc(C2CC(=O)Oc3ccc(C(C)(C)C)cc32)cc1 (stereo not drawn) ; yields the recorded call
Marked response: label 0
